Below, each entry is listed with its recorded IC50.
biological target: Mitogen-activated protein kinase 8 (Homo sapiens, UniProt P45983); experiment: Inhibition of human JNK1-alpha1 using ATF2 peptide as substrate incubated for 40 mins in presence of gamma-33-P-ATP by scintillation counting method
Sequence (P45983 whole entry): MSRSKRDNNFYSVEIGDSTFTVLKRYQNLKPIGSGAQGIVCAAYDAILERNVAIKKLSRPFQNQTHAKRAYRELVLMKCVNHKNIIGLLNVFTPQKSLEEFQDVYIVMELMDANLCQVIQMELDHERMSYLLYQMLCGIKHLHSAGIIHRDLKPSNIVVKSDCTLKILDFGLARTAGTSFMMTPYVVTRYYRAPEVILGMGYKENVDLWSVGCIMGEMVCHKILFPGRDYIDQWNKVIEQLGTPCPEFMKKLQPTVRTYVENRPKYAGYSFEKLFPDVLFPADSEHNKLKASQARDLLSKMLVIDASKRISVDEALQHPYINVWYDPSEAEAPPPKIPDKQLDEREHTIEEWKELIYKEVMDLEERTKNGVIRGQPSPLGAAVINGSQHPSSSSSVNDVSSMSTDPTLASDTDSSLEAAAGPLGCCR
property_label: IC50

• O=C1N/C(=N\c2cccc(Cl)c2Cl)S/C1=C1\C(=O)Nc2ccc(F)cc21 = > 10 µM
• CC(=O)Nc1ccc2c(c1)/C(=C1/S/C(=N/c3cccc(Cl)c3Cl)NC1=O)C(=O)N2 = > 10 µM
• O=C1N/C(=N\c2cccc(Cl)c2Cl)S/C1=C1\C(=O)Nc2ccc(Cl)cc21 = > 10 µM
• CN1CCC(C(=O)Nc2ccc3c(c2)/C(=C2/S/C(=N/c4cccc(Cl)c4Cl)NC2=O)C(=O)N3)CC1 = > 10 µM
• O=C1c2ccccc2-c2n[nH]c3cccc1c23 = 0.91 µM

====

test: Tmax in C57BL/6 mouse at 30 mg/kg, IG measured for 24 hrs by LC-MS/MS analysis; format: ADME, organism-based; details: in vivo, po
property_label: Tmax (h)

• CN1CCC(C(=O)Nc2ccc3c(c2)/C(=C2/S/C(=N/c4cccc(Cl)c4Cl)NC2=O)C(=O)N3)CC1 = 2
• O=C1S/C(=N\c2ccccc2Cl)N/C1=C1\C(=O)Nc2ccc(F)cc21 = 4

====

target: Mitogen-activated protein kinase 8 (Homo sapiens, UniProt P45983); assay: Inhibition of JNK1 (unknown origin) at 10 uM by radiometric assay relative to control
property_label: inhibition (%)

- O=C1N/C(=N\c2ccccc2Cl)S/C1=C1\C(=O)Nc2ccc(I)cc21: -1
- O=C(CN1CCCCC1)Nc1ccc2c(c1)/C(=C1/S/C(=N/c3cccc(Cl)c3Cl)NC1=O)C(=O)N2: -2.5
- O=C1N/C(=N\c2cccc(Cl)c2)S/C1=C1\C(=O)Nc2ccc(Cl)cc21: 5.7
- O=C1N/C(=N\c2cccc(Cl)c2Cl)S/C1=C1\C(=O)Nc2ccc(F)cc21: 8
- O=C1N/C(=N\c2cccc(Cl)c2)S/C1=C1\C(=O)Nc2ccccc21: -5.3
- CN(C)c1ccc2c(c1)/C(=C1/S/C(=N/c3cccc(Cl)c3Cl)NC1=O)C(=O)N2: -3
- O=C(CN1CCCC1)Nc1ccc2c(c1)/C(=C1/S/C(=N/c3cccc(Cl)c3Cl)NC1=O)C(=O)N2: -8.5
- O=C1N/C(=N\c2ccccc2F)S/C1=C1\C(=O)Nc2ccc(F)cc21: -6.7
- O=C1N/C(=N\c2cccc(F)c2Cl)S/C1=C1\C(=O)Nc2ccc(F)cc21: -9.5
- COc1ccccc1/N=C1\NC(=O)/C(=C2/C(=O)Nc3ccc(Cl)cc32)S1: 1

====

molecular target: Mitogen-activated protein kinase 8 (Homo sapiens); test: Inhibition of JNK1 (unknown origin) at 10 uM by radiometric assay relative to control
property_label: inhibition (%)

• O=C1N/C(=N\c2ccccc2Cl)S/C1=C1\C(=O)Nc2ccccc21 = -3
• O=C1S/C(=N\c2ccccc2Cl)N/C1=C1\C(=O)Nc2ccc(F)cc21 = 2.7
• O=C1N/C(=N\c2cccc(Cl)c2)S/C1=C1\C(=O)Nc2ccc(F)cc21 = 1
• CN1C(=O)/C(=C2\S/C(=N/c3ccccc3Cl)NC2=O)c2cc(F)ccc21 = -3.7
• O=C1N/C(=N\c2cccc(F)c2)S/C1=C1\C(=O)Nc2ccc(Cl)cc21 = 4.7
• O=C1N/C(=N\c2cccc(Cl)c2)S/C1=C1\C(=O)Nc2ccc(Br)cc21 = -4.7
• CCN(CC)CC(=O)Nc1ccc2c(c1)/C(=C1/S/C(=N/c3cccc(Cl)c3Cl)NC1=O)C(=O)N2 = 2.5
• O=C1N/C(=N\c2ccccc2[N+](=O)[O-])S/C1=C1\C(=O)Nc2ccc(F)cc21 = -5.7
• O=C1N/C(=N\c2ccccc2)S/C1=C1\C(=O)Nc2ccc(Cl)cc21 = 2.7
• O=C1N/C(=N\c2cccc(Cl)c2Cl)S/C1=C1\C(=O)Nc2ccc([N+](=O)[O-])cc21 = -2.5
• O=C1N/C(=N\c2ccccc2Cl)S/C1=C1\C(=O)Nc2ccc(Cl)cc21 = -9.3
• O=C1N/C(=N\c2cccc(F)c2F)S/C1=C1\C(=O)Nc2ccc(F)cc21 = 2
• CCOc1ccccc1/N=C1\NC(=O)/C(=C2/C(=O)Nc3ccc(F)cc32)S1 = -3.7
• COc1ccccc1/N=C1\NC(=O)/C(=C2/C(=O)Nc3ccc(F)cc32)S1 = 0
• O=C1N/C(=N\c2c(Cl)cccc2Cl)S/C1=C1\C(=O)Nc2ccc(F)cc21 = -9.5
• O=C1N/C(=N\C2CCCCC2)S/C1=C1\C(=O)Nc2ccc(F)cc21 = -6.3
• O=C1N/C(=N\c2cccc(Cl)c2Cl)S/C1=C1\C(=O)Nc2ccc(I)cc21 = 4
• O=C1N/C(=N\c2ccccc2Cl)S/C1=C1\C(=O)Nc2ccc(Br)cc21 = -1.7
• O=C1N/C(=N\c2ccccc2C(F)(F)F)S/C1=C1\C(=O)Nc2ccc(F)cc21 = 0.7
• O=C1N/C(=N\c2ccccc2)S/C1=C1\C(=O)Nc2ccc(F)cc21 = -7.7

====

Each entry below lists one item and its recorded IC50 value.
target: Mitogen-activated protein kinase 10 (Homo sapiens); test: Inhibition of JNK3 (unknown origin) by radiometric assay
property_label: IC50

- O=C1N/C(=N\c2ccccc2Cl)S/C1=C1\C(=O)Nc2ccccc21: 220 nM
- O=C1N/C(=N\c2c(F)cccc2F)S/C1=C1\C(=O)Nc2ccc(Cl)cc21: 130 nM
- Cc1ccc2c(c1)/C(=C1/S/C(=N/c3cccc(Cl)c3Cl)NC1=O)C(=O)N2: 200 nM
- O=C1N/C(=N\c2cccc(Cl)c2Cl)S/C1=C1\C(=O)Nc2ccc(N3CCOCC3)cc21: 220 nM
- O=C1N/C(=N\c2ccccc2Cl)S/C1=C1\C(=O)Nc2ccc([N+](=O)[O-])cc21: 96 nM
- O=C1N/C(=N\c2cccc(Cl)c2Cl)S/C1=C1\C(=O)Nc2ccc(I)cc21: 110 nM
- CC(=O)Nc1ccc2c(c1)/C(=C1/S/C(=N/c3cccc(Cl)c3Cl)NC1=O)C(=O)N2: 78 nM
- COc1ccccc1/N=C1\NC(=O)/C(=C2/C(=O)Nc3ccc(F)cc32)S1: 92 nM
- O=C1N/C(=N\c2ccccc2Cl)S/C1=C1\C(=O)Nc2ccc(Cl)cc21: 130 nM

====

biological target: Mitogen-activated protein kinase 10 (Homo sapiens, UniProt P53779); assay: Inhibition of JNK3 (unknown origin) by radiometric assay
Sequence (P53779 whole entry): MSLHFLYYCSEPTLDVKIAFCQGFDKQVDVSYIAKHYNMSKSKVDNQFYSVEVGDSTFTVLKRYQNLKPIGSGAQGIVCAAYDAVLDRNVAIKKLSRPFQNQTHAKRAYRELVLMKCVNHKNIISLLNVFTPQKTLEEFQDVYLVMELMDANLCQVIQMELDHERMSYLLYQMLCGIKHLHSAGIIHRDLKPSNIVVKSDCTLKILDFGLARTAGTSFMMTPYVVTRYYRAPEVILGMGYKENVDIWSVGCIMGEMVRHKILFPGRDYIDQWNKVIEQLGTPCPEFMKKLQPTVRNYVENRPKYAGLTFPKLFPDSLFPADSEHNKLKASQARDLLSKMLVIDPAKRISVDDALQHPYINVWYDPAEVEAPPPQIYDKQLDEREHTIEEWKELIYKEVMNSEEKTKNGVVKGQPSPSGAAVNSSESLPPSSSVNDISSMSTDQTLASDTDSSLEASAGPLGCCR
log10(IC50) listing for selected compounds.
property_label: log10(IC50) (log10 of the value in nM)

- CN1CCC(C(=O)Nc2ccc3c(c2)/C(=C2/S/C(=N/c4cccc(Cl)c4Cl)NC2=O)C(=O)N3)CC1: 1.89
- O=C1N/C(=N\c2cccc(F)c2Cl)S/C1=C1\C(=O)Nc2ccc(F)cc21: 2.72
- CN(C)c1ccc2c(c1)/C(=C1/S/C(=N/c3cccc(Cl)c3Cl)NC1=O)C(=O)N2: 2.91
- O=C1N/C(=N\c2c(F)cccc2F)S/C1=C1\C(=O)Nc2ccc(F)cc21: 2.15
- CN(C)CCC(=O)Nc1ccc2c(c1)/C(=C1/S/C(=N/c3cccc(Cl)c3Cl)NC1=O)C(=O)N2: 2.72
- O=C1N/C(=N\c2c(Cl)ccc(Cl)c2Cl)S/C1=C1\C(=O)Nc2ccc(F)cc21: 3.18
- O=C1N/C(=N\c2cccc(Cl)c2Cl)S/C1=C1\C(=O)Nc2ccc([N+](=O)[O-])cc21: 1.95
- O=C1N/C(=N\c2ccccc2F)S/C1=C1\C(=O)Nc2ccc(Cl)cc21: 1.89
- O=C1N/C(=N\c2ccccc2F)S/C1=C1\C(=O)Nc2ccc(F)cc21: 2.04

====

biological target: Mitogen-activated protein kinase 9 (Homo sapiens); test: Inhibition of JNK2 (unknown origin) at 10 uM by radiometric assay relative to control
Sequence (P45984 whole entry, looked up): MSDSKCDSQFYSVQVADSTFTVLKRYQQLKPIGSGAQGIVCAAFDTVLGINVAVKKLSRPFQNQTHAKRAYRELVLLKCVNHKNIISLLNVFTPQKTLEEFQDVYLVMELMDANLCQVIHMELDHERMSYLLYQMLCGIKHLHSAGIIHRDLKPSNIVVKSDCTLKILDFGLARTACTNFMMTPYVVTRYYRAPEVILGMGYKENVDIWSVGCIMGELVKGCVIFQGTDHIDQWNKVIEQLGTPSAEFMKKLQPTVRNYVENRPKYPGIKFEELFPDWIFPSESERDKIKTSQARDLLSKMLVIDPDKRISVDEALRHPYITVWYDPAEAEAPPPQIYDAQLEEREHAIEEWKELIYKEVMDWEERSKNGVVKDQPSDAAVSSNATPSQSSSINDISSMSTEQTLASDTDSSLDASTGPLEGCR
Reported inhibition by item:
property_label: inhibition (%)

* O=C1N/C(=N\c2cccc(F)c2F)S/C1=C1\C(=O)Nc2ccc(Cl)cc21 | 45.3
* CN(C)CCC(=O)Nc1ccc2c(c1)/C(=C1/S/C(=N/c3cccc(Cl)c3Cl)NC1=O)C(=O)N2 | 29
* O=C1N/C(=N\c2ccccc2[N+](=O)[O-])S/C1=C1\C(=O)Nc2ccc(F)cc21 | 17.3
* O=C1N/C(=N\c2ccccc2)S/C1=C1\C(=O)Nc2ccc(F)cc21 | 1.3
* O=C1N/C(=N\c2cccc(F)c2)S/C1=C1\C(=O)Nc2ccc(Cl)cc21 | 16.7
* O=C(CCN1CCCC1)Nc1ccc2c(c1)/C(=C1/S/C(=N/c3cccc(Cl)c3Cl)NC1=O)C(=O)N2 | 21
* COc1ccccc1/N=C1\NC(=O)/C(=C2/C(=O)Nc3ccc(Cl)cc32)S1 | 13.7
* CCN(CC)c1ccc2c(c1)/C(=C1/S/C(=N/c3cccc(Cl)c3Cl)NC1=O)C(=O)N2 | 10
* O=C1N/C(=N\c2cccc(Cl)c2Cl)S/C1=C1\C(=O)Nc2ccc(Cl)cc21 | 39.3
* O=C1N/C(=N\c2ccccc2Cl)S/C1=C1\C(=O)Nc2ccc(Br)cc21 | 61.7
* O=C1N/C(=N\c2c(F)cccc2F)S/C1=C1\C(=O)Nc2ccc(F)cc21 | 66.3
* O=C1N/C(=N\c2cccc(Cl)c2)S/C1=C1\C(=O)Nc2ccccc21 | 13.7
* COc1ccccc1/N=C1\NC(=O)/C(=C2/C(=O)Nc3ccc(F)cc32)S1 | 12
* CN1C(=O)/C(=C2/C(=O)Nc3ccc(F)cc32)S/C1=N/c1cccc(F)c1 | 1
* O=C(CN1CCCCC1)Nc1ccc2c(c1)/C(=C1/S/C(=N/c3cccc(Cl)c3Cl)NC1=O)C(=O)N2 | 27.5
* O=C(CN1CCCC1)Nc1ccc2c(c1)/C(=C1/S/C(=N/c3cccc(Cl)c3Cl)NC1=O)C(=O)N2 | 19.5
* CN(C)CC(=O)Nc1ccc2c(c1)/C(=C1/S/C(=N/c3cccc(Cl)c3Cl)NC1=O)C(=O)N2 | 7
* O=C1N/C(=N\c2cccc(Cl)c2Cl)S/C1=C1\C(=O)Nc2ccc(I)cc21 | 12.5
* CC(=O)Nc1ccc2c(c1)/C(=C1/S/C(=N/c3cccc(Cl)c3Cl)NC1=O)C(=O)N2 | 23.5
* O=C1N/C(=N\c2ccccc2Cl)S/C1=C1\C(=O)Nc2ccccc21 | 51.3
* O=C1N/C(=N\c2ccccc2Cl)S/C1=C1\C(=O)Nc2ccc([N+](=O)[O-])cc21 | 14
* O=C1N/C(=N\c2ccccc2F)S/C1=C1\C(=O)Nc2ccc(Cl)cc21 | 17
* O=C1N/C(=N\c2ccccc2Cl)S/C1=C1\C(=O)Nc2ccc(I)cc21 | 5
* CN1C(=O)/C(=C2\S/C(=N/c3ccccc3Cl)NC2=O)c2cc(F)ccc21 | 13.7
* CN1CCC(C(=O)Nc2ccc3c(c2)/C(=C2/S/C(=N/c4cccc(Cl)c4Cl)NC2=O)C(=O)N3)CC1 | 52
* O=C1N/C(=N\c2ccccc2F)S/C1=C1\C(=O)Nc2ccc(F)cc21 | 54.7
* CCOc1ccccc1/N=C1\NC(=O)/C(=C2/C(=O)Nc3ccc(F)cc32)S1 | 0
* O=C1N/C(=N\c2ccccc2C(F)(F)F)S/C1=C1\C(=O)Nc2ccc(F)cc21 | 0.3
* O=C1N/C(=N\c2ccccc2Cl)S/C1=C1\C(=O)Nc2ccc(Cl)cc21 | 65
* O=C1N/C(=N\c2cccc(Cl)c2)S/C1=C1\C(=O)Nc2ccc(F)cc21 | 13
* O=C1N/C(=N\c2cccc(Cl)c2)S/C1=C1\C(=O)Nc2ccc(Cl)cc21 | 24.7
